# Assayed Target: 72 kDa type IV collagenase (Homo sapiens, UniProt P08253)
# Sequence (P08253 whole entry): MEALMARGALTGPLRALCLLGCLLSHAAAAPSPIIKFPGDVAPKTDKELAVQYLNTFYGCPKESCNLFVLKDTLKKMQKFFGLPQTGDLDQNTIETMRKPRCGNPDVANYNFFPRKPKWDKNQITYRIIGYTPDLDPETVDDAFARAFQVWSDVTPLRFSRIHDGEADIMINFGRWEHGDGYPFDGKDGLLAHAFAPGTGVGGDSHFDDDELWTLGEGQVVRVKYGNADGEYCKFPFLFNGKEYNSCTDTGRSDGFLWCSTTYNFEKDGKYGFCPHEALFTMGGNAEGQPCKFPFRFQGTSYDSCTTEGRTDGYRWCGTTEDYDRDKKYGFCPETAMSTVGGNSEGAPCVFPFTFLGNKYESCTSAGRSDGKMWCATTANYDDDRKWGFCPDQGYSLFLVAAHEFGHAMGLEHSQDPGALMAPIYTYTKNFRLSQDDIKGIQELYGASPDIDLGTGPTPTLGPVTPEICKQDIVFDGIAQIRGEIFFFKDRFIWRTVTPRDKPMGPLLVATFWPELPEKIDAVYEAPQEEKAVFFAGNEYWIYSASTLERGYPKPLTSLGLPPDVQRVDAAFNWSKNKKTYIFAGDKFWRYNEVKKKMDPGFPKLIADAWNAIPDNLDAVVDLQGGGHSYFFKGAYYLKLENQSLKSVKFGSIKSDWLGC
# Test Details: Inhibition of recombinant human proMMP2 using Mca-Lys-Pro-Leu-Gly-Leu-Dap(Dnp)-Ala-Arg-NH2 as substrate preincubated for 3 hrs followed by substrate addition and measured every 10 secs for 15 mins in presence of APMA by fluorometric assay
Experimental Readout: IC50 (nM)
Write down the numeric answer in nM and omit the unit.

Look over these answered cases.
>>> value_reported("O=C(NCC[C@@H](NS(=O)(=O)c1ccc(-c2ccccc2)cc1)C(=O)NO)c1cccc(C(=O)NCC[C@@H](NS(=O)(=O)c2ccc(-c3ccccc3)cc2)C(=O)NO)c1")
1.2
>>> value_reported("COc1ccc(-c2ccc(S(=O)(=O)N(CCNC(=O)c3cccc(C(=O)NCCN([C@H](CCN4C(=O)c5ccccc5C4=O)C(=O)NO)S(=O)(=O)c4ccc(-c5ccc(OC)cc5)cc4)c3)[C@H](CCN3C(=O)c4ccccc4C3=O)C(=O)NO)cc2)cc1")
13
>>> value_reported("O=C(CCCNC(=O)c1cccc(C(=O)NCCCC(=O)NCC[C@@H](NS(=O)(=O)c2ccc(-c3ccccc3)cc2)C(=O)NO)c1)NCC[C@@H](NS(=O)(=O)c1ccc(-c2ccccc2)cc1)C(=O)NO")
1.6

Here is the next item to consider.
Requested field: IC50. Item: `COc1ccc(-c2ccc(S(=O)(=O)N(CCNC(=O)CCCNC(=O)c3cccc(C(=O)NCCCC(=O)NCCN([C@H](CCN4C(=O)c5ccccc5C4=O)C(=O)NO)S(=O)(=O)c4ccc(-c5ccc(OC)cc5)cc4)c3)[C@H](CCN3C(=O)c4ccccc4C3=O)C(=O)NO)cc2)cc1`
4.1

* * *

# Assayed Target: Interstitial collagenase (Homo sapiens)
# Sequence (P03956 whole entry): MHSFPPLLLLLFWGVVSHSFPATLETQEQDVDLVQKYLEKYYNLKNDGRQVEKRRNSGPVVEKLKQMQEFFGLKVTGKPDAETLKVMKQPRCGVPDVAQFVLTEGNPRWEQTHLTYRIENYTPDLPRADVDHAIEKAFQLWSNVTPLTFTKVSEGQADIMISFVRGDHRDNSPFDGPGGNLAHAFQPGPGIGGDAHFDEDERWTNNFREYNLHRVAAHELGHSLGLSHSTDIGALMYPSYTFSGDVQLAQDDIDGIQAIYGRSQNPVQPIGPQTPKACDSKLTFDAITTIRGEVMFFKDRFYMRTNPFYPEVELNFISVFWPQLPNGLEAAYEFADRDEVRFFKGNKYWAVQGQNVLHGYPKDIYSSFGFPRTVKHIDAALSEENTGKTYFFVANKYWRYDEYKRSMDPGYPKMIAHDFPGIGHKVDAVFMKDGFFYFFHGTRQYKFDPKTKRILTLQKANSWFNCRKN
# Test Details: Inhibition of recombinant human pro-MMP1 using Mca-Lys-Pro-Leu-Gly-Leu-Dap(Dnp)-Ala-Arg-NH2 as substrate preincubated for 3 hrs followed by substrate addition and measured every 10 secs for 15 mins in presence of APMA by fluorometric assay
MET if IC50 is below 0.2 µM. NOT MET if not; exact matches included in NOT MET.

Is it true that IC50 reported for `O=C(CCCNC(=O)c1cccc(C(=O)NCCCC(=O)NCC[C@@H](NS(=O)(=O)c2ccc(-c3ccccc3)cc2)C(=O)NO)c1)NCC[C@@H](NS(=O)(=O)c1ccc(-c2ccccc2)cc1)C(=O)NO` is less than 0.2 µM?
MET

Also `COc1ccc(-c2ccc(S(=O)(=O)N(CCNC(=O)c3cccc(C(=O)NCCN([C@H](CCN4C(=O)c5ccccc5C4=O)C(=O)NO)S(=O)(=O)c4ccc(-c5ccc(OC)cc5)cc4)c3)[C@H](CCN3C(=O)c4ccccc4C3=O)C(=O)NO)cc2)cc1` ?
MET

Also `COc1ccc(-c2ccc(S(=O)(=O)N(OC(C)C)[C@H](CCN3C(=O)c4ccccc4C3=O)C(=O)NO)cc2)cc1` ?
MET

Also `COc1ccc(-c2ccc(S(=O)(=O)N(CCNC(=O)CCCNC(=O)c3cccc(C(=O)NCCCC(=O)NCCN([C@H](CCN4C(=O)c5ccccc5C4=O)C(=O)NO)S(=O)(=O)c4ccc(-c5ccc(OC)cc5)cc4)c3)[C@H](CCN3C(=O)c4ccccc4C3=O)C(=O)NO)cc2)cc1` ?
MET

Also `O=C(NCC[C@@H](NS(=O)(=O)c1ccc(-c2ccccc2)cc1)C(=O)NO)c1cccc(C(=O)NCC[C@@H](NS(=O)(=O)c2ccc(-c3ccccc3)cc2)C(=O)NO)c1` ?
NOT MET
